Values compiled from patent US20170204102A1.

- Test system: Pectobacterium carotovorum SCC1
- testSummary: Inhibition of soft rot lesion in cucumber leaf
- Type: in vivo
- conditionContext: 1 ppm, Table 8, control 100
quantityKind: Area of lesion (%)
Please respond with the number in % and leave the unit unwritten.

Per the record, O=C1N[C@H](Cc2ccc(O)cc2)C(=O)N2CCC[C@H]12 [Compound No. 64] has Area of lesion of 50

Per the record, CSCC[C@H]1NC(=O)[C@@H]2CCCN2C1=O [Compound No. 57] has Area of lesion of 70

Per the record, O=C1N[C@H](Cc2ccccc2)C(=O)N2CCC[C@H]12 [Compound No. 63] has Area of lesion of 82.5

Per the record, CSC(=O)c1cccc2nnsc12 [BTH, reference compound] has Area of lesion of 100

Per the record, CC(C)C[C@H]1NC(=O)[C@H]2CCCN2C1=O [Compound No. 61] has Area of lesion of 5

Per the record, CC(O)C1NC(=O)C2CCCN2C1=O (stereo not drawn) [Compound No. 56] has Area of lesion of 5

Per the record, O=C1N[C@H](Cc2ccccc2)C(=O)N2CCC[C@@H]12 [Compound No. 58] has Area of lesion of 75

Per the record, NC(=O)CC[C@H]1NC(=O)[C@@H]2CCCN2C1=O [Compound No. 59] has Area of lesion of 30

Per the record, CCC(C)C1NC(=O)C2CCCN2C1=O (stereo not drawn) [Compound No. 60] has Area of lesion of 50

* * *

Give measured Area of lesion for each item. Keep answers brief.
- Test system: Pectobacterium carotovorum SCC1
- testSummary: Inhibition of soft rot lesion in tobacco leaf
- Format: in vivo
- conditionContext: 100 ppm, Table 5, control 73.75
Please respond with the number in % and leave the unit unwritten.

Per the record, CC(O)C1NC(=O)C2CCCN2C1=O (stereo not drawn) [Compound No. 56] has Area of lesion of 10

Per the record, CC(O)C1NC(=O)C2CCCN2C1=O (stereo not drawn) [Compound No. 66] has Area of lesion of 37.5

Per the record, CCC(C)C1NC(=O)C2CCCN2C1=O (stereo not drawn) [Compound No. 67] has Area of lesion of 40

* * *

Give measured melting point for each item. Keep answers brief.

Per the record, O=C1CNC(=O)C(Cc2c[nH]c3ccccc23)N1 (centres unmarked) [Compound No. 5] has melting point of 280 to 284 °C (dec.)

Per the record, CCC(C)C1NC(=O)C2CCCN2C1=O (centres unmarked) [Compound No. 28] has melting point of 104 to 105 °C

Per the record, CC(C)CC1NC(=O)CNC1=O (centres unmarked) [Compound No. 2, 3-(2-methylpropyl)-2,5-diketopiperazine] has melting point of 241 to 244 °C

Per the record, CCCC1NC(=O)C(C)NC1=O (centres unmarked) [Compound No. 9] has melting point of 220 to 222 °C (dec.)

Per the record, CC1NC(=O)C(Cc2ccc(O)cc2)NC1=O (centres unmarked) [Compound No. 10] has melting point of 276 to 280 °C (dec.)

* * *

Give measured Number of anthractic lesions in first leaf for each item. Keep answers brief.
- Test system: Colletotrichum orbiculare
- Type: in vivo
- conditionContext: 1 ppm; cucumber; control 12.5
Lab note: jot down the number only; don't add units.

Per the record, CSC(=O)c1cccc2nnsc12 [BTH, reference compound] has Number of anthractic lesions in first leaf of 0.8

Per the record, O=C1NCC(=O)N2CCCC12 (stereo not drawn) [Compound No. 29, hexahydropyrrolo[1,2-a]pyrazin-1,4-dione] has Number of anthractic lesions in first leaf of 5.0

Per the record, CC1NC(=O)C2CCCN2C1=O (stereo not drawn) has Number of anthractic lesions in first leaf of 1.3
